Every entry's value here was drawn from patent US8048879B2.

Target: 5-HT transporter (Rattus norvegicus)
Construct: from tissue; host or cells: rat brain (medulla and pons), synaptosomes, P2 fraction
Sequence (P31652 whole entry): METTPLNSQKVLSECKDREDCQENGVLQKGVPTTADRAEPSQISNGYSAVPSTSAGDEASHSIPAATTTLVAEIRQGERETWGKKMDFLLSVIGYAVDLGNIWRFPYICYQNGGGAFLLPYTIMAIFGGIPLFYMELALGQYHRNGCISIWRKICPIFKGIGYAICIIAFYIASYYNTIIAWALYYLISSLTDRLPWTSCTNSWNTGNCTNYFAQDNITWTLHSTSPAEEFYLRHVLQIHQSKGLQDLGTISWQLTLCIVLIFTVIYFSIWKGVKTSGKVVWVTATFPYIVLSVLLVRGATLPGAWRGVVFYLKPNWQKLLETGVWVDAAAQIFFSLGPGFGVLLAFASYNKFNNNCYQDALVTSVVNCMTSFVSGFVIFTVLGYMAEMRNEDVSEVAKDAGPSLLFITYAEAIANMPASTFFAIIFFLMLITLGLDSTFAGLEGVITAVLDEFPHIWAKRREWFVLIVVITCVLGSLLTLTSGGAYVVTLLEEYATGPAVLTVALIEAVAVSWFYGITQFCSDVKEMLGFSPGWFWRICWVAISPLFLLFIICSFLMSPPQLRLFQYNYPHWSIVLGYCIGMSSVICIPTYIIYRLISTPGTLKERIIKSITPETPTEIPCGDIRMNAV
Experiment: 5-HT uptake inhibition, synaptosomes from rat brain (medulla and pons)
Format: biochemical
measure name: inhibition at 10 µM (%)
Numbers only, in %.

Worked examples follow.
compound	measure name	recorded number
COCCCNC(=O)c1noc2c1CN(S(=O)(=O)c1ccc(OC)cc1)CC2	inhibition at 10 µM	67
COc1ccc(OCCNC(=O)c2noc3c2CN(S(=O)(=O)c2ccccc2)CC3)cc1	inhibition at 10 µM	76
O=C(c1noc2c1CN(S(=O)(=O)c1cc(Cl)ccc1Cl)CC2)N(CCc1ccccc1)Cc1ccccc1	inhibition at 10 µM	71

Please go through the list and note inhibition at 10 µM for each compound.
1. CC(=O)Nc1ccc(C(=O)N2CCc3onc(C(=O)NCC4CC4)c3C2)cc1
2. O=C(NCc1cccc(Cl)c1Cl)c1noc2c1CN(S(=O)(=O)c1ccc(OC(F)(F)F)cc1)CC2
3. O=C(c1noc2c1CN(S(=O)(=O)c1ccc(Cl)c(Cl)c1)CC2)N1CCC(CCN2CCCC2)CC1
4. CN(CCCNC(=O)c1noc2c1CN(S(=O)(=O)c1ccc(OC(F)(F)F)cc1)CC2)c1ccccc1
5. O=C(NCc1ccc(F)cc1F)c1noc2c1CN(S(=O)(=O)c1cc(Cl)ccc1Cl)CC2
6. CCC(C)(CC(=O)O)CC(=O)N1CCc2onc(C(=O)NCCOC)c2C1 (centres unmarked)

-- reply
1. 85
2. 65
3. 35
4. 65
5. 71
6. 54

Please give inhibition at 10 µM for each item listed below.
1. Cc1cc(C(=O)N2CCc3onc(C(=O)NCCN4CCCC4)c3C2)ccc1Br
2. CSc1ccc(CN(Cc2ccco2)C(=O)c2noc3c2CN(S(=O)(=O)N(C)C)CC3)cc1

-- reply
1. 70
2. 64

* * *

Target: NA transporter (Rattus norvegicus)
Construct: from tissue; host or cells: rat brain (hypothalamus), synaptosomes, P2 fraction
Sequence (Q9WTR4 1-597): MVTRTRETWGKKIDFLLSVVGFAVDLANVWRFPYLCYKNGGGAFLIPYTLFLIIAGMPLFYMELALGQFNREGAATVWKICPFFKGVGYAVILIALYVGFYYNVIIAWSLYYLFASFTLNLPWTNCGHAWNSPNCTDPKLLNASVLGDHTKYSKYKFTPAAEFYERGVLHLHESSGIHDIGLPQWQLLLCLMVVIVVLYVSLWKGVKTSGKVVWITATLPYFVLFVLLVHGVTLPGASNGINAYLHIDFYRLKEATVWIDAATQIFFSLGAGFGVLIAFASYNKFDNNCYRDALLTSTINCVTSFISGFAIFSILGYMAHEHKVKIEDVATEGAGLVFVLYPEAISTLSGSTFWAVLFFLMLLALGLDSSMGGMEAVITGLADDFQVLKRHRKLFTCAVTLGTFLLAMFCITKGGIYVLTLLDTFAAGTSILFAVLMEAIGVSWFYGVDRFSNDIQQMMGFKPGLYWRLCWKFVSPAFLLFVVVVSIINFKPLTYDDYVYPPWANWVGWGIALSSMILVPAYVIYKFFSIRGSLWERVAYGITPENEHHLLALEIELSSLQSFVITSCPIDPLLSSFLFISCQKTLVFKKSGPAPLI
Assay: Noradrenalin (NA) uptake inhibition, synaptosomes from rat brain (hypothalamus)
Type: biochemical
Description: b) Method for Determining Noradrenalin and 5-HT Uptake Inhibition: […] The particular uptake is measured in a 96-well microtitre plate. […] The incubation time is 7.5 minutes for [^3H]-NA and 5 minutes for [^3H]-5-HT. […] After sealing with a top Seal® (Packard) and establishing an equilibrium (around 5 hours), radioactivity is determined in a “Trilux 1450 Microbeta” (Wallac). […] The following characteristics were determined for the NA or 5-HT transporter: […]
measure name: inhibition at 10 µM

Examples with their reported inhibition at 10 µM follow.
molecule	tested on	result
O=C(NCCN1CCCC1)c1noc2c1CN(C(=O)COc1cccc(Cl)c1)CC2	NA transporter (Rattus norvegicus)	70%
O=C(NC1CCCC1)c1noc2c1CN(C(=O)COc1ccc(Cl)cc1)CC2	NA transporter (Rattus norvegicus)	68%

Now, please, on to the next molecule.
-- ask Tell me inhibition at 10 µM of O=C(NC1CCCC1OCc1ccccc1)c1noc2c1CN(S(=O)(=O)c1cc(Cl)ccc1Cl)CC2 (stereo not drawn) when tested on NA transporter (Rattus norvegicus).
-- reply 71%

* * *

Molecular target: 5-HT transporter (Rattus norvegicus)
Construct: from tissue; host or cells: rat brain (medulla and pons), synaptosomes, P2 fraction
Experiment: 5-HT uptake inhibition, synaptosomes from rat brain (medulla and pons)
Format: biochemical
Counter-ions that a name gives are not always drawn.
Classification by inhibition at 10 µM follows these ranges: bottom range: < 60%; center range: ≥ 60% and < 70%; top range: ≥ 70%

Answered cases to consult:
compound	answer label
Cc1cc(C)c(S(=O)(=O)N2CCc3onc(C(=O)N4CCN(CCCN(C)C)CC4)c3C2)c(C)c1 [Example 144, dihydrochloride]	bottom range
O=C(NC1CCN(Cc2ccc3ccccc3c2)C1)c1noc2c1CN(S(=O)(=O)c1ccccc1)CC2 (stereo not drawn)	top range
O=C(O)CC1(CC(=O)N2CCc3onc(C(=O)Nc4ccccc4)c3C2)CCCC1	bottom range
CC(C)(C)OC(=O)NC(COCc1ccccc1)C(=O)N1CCc2onc(C(=O)NCc3cccnc3)c2C1 (stereo not drawn)	bottom range
O=C(NCc1ccc(Cl)cc1Cl)c1noc2c1CN(S(=O)(=O)c1cccc(C(F)(F)F)c1)CC2	center range

-- ask Which bin, given its inhibition at 10 µM, does O=C(c1noc2c1CN(S(=O)(=O)c1ccccc1)CC2)N1CCN(CC=Cc2ccccc2)CC1 occupy?
-- reply center range

-- ask Any idea which band Cc1ccc(CNC(=O)c2noc3c2CN(C(=O)C(C)(C)CC(=O)O)CC3)o1 is in?
-- reply bottom range
